Reported AC50 is given for each of the following molecules.
Test: loss of viability in HepG2 cells – cell-based, CellTiter-Glo, cherry-picked, cytotoxicity control for Shn3 inhibitor project, dose response (AID 624134)
Assay type: functional
The source made the active and inactive calls.

>>> recorded_measurement("CC1CCN(c2ccc(-c3cccc(NC(=O)C(F)(F)F)c3)nn2)CC1")
"44.1 µM (active)"
>>> recorded_measurement("COc1ccc(C(=O)NC(=S)NNC(=O)c2ccc3ccccc3n2)cc1")
"41.5 µM (active)"
>>> recorded_measurement("CC(C)(C)NCC(=Cc1ccccc1)C(=O)c1ccccc1")
"11.1 µM (active)"
>>> recorded_measurement("O=C(Nc1ccc(Cl)c(Cl)c1)c1cccc(S(=O)(=O)NCc2cccnc2)c1")
"6.59 µM (active)"

Given COc1cc(C(=O)NC2CCCc3c2cnn3-c2ccccc2F)cc(OC)c1OC (stereo not given) , state its recorded AC50.
6.29 µM (active)

###

Reported IC50 is given for each of the following compounds.
Target: Mannose-6-phosphate isomerase (Homo sapiens, UniProt P34949)
Sequence (P34949 whole entry): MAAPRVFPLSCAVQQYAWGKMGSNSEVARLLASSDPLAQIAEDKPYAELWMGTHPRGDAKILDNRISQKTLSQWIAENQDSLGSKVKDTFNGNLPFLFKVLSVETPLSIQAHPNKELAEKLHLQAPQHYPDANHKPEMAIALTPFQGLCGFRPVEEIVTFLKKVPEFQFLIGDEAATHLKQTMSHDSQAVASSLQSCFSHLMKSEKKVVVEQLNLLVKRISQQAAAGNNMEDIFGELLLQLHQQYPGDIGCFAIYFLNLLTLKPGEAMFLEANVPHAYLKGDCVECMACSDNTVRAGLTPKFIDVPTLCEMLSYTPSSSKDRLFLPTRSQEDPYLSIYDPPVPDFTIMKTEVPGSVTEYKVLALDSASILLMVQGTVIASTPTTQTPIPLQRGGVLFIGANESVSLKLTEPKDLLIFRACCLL
Experiment: MPI inhibition at elevated mannose 6-phosphate – biochemical, fluorescence intensity, high mannose 6-phosphate, primary screen (AID 1220)
The source made the active and inactive calls.

For orientation, consider the following solved cases.
>>> recorded_measurement("CCN1CCc2c(C#N)c(NCc3ccccc3)nc(NCCO)c2C1")
"> 50 µM (not active)"
>>> recorded_measurement("Cc1c(N=C2C=C(Br)C(=O)C(Br)=C2)c(=O)n(-c2ccccc2)n1C")
"> 50 µM (not active)"
>>> recorded_measurement("Fc1ccccc1Nc1nc2c(s1)CCc1ccccc1-2")
"> 50 µM (not active)"
>>> recorded_measurement("Cc1c(C(=O)O)c(C(=O)O)nc2ccc(N3CCOCC3)cc12")
"> 50 µM (not active)"
>>> recorded_measurement("CCN(C(=S)Nc1cccnc1)c1cccc2ccccc12")
"> 50 µM (not active)"
>>> recorded_measurement("Oc1c(CN2CCCCC2)cc(Br)c2cccnc12")
"15 µM (active)"

Okay, next one:
Given Oc1ccc(/C=N/N(Cc2ccccc2)c2ccccc2)c(O)c1O , state its recorded IC50.
> 50 µM (not active)

###

Target: DNA repair protein RAD52 homolog (Homo sapiens, UniProt P43351)
Sequence (P43351 whole entry): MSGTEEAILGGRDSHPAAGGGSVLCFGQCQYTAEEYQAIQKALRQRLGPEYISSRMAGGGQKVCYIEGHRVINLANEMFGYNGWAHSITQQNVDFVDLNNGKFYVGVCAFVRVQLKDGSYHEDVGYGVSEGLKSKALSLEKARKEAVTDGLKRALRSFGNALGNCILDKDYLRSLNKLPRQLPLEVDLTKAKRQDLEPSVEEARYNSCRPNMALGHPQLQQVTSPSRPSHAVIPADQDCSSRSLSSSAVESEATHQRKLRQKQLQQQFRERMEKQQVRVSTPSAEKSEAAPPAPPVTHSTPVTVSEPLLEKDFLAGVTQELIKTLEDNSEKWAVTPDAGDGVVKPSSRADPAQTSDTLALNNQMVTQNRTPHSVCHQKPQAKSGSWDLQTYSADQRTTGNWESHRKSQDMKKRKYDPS
Format: functional, biochemical
Active and inactive are the calls of the source.
experimental-readout: AC50

For orientation, consider the following solved cases.
>>> recorded_measurement("[H]/N=C(\\N/C(=N/[H])NCCCCCCNC(=N)NC(=N)Nc1ccc(Cl)cc1)Nc1ccc(Cl)cc1")
"17400 nM (active)"
>>> recorded_measurement("CC1(C)CC(N=c2cc(-c3ccccc3)oc3ccc(Cl)cc23)CC(C)(C)N1")
"689 nM (active)"

Okay, next one:
Given COc1ccc(-c2cc(NC=O)c3ncc(-c4cccc(C(=O)NCCN(C)C)c4)n3c2)cc1 , state its recorded AC50.
2810 nM (active)

###

Reported IC50 is given for each of the following compounds.
Target: Induced myeloid leukemia cell differentiation protein Mcl-1 (Homo sapiens, UniProt Q07820)
Sequence (Q07820 whole entry): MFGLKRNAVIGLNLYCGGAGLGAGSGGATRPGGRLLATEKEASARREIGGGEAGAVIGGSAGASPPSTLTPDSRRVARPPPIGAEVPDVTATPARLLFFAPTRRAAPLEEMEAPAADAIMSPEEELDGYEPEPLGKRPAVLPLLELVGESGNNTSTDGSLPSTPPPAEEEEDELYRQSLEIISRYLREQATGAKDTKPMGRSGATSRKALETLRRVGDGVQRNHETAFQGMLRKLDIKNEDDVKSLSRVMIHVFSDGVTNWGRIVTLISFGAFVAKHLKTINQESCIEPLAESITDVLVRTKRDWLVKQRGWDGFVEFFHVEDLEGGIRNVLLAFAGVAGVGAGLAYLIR
Assay type: functional
Activity calls are given as the source filed them.

For orientation, consider the following solved cases.
>>> recorded_measurement("CC(C)OC(=O)Cn1cnc2ccc(Br)cc2c1=O")
"24.1 µM (not active)"
>>> recorded_measurement("CCOC(=O)c1c(C)oc2c1c(C(c1ccncc1)N1CCOCC1)c(O)c1ccccc12 (stereo unspecified)")
"1.16 µM (active)"
>>> recorded_measurement("O=[N+]([O-])c1ccc2[nH]c(O)c(N=NC(S)=Nc3cccnc3)c2c1")
"6.26 µM (active)"
>>> recorded_measurement("CC1=C(C(=O)OCC(C)C)C(c2ccsc2)NC(=O)N1 (stereo unspecified)")
"2.4 µM (not active)"
>>> recorded_measurement("COc1cccc(/C=N/Nc2[nH]cnc3c4cc(C)ccc4nc2-3)c1OC")
"3.73 µM (active)"

Given COc1cc(SC)ccc1C(=O)N1CCN(c2ccccc2)CC1 , state its recorded IC50.
< 0.4 µM (not active)

###

Target: Rac GTPase-activating protein 1 (Homo sapiens, UniProt Q9H0H5)
Sequence (Q9H0H5 whole entry): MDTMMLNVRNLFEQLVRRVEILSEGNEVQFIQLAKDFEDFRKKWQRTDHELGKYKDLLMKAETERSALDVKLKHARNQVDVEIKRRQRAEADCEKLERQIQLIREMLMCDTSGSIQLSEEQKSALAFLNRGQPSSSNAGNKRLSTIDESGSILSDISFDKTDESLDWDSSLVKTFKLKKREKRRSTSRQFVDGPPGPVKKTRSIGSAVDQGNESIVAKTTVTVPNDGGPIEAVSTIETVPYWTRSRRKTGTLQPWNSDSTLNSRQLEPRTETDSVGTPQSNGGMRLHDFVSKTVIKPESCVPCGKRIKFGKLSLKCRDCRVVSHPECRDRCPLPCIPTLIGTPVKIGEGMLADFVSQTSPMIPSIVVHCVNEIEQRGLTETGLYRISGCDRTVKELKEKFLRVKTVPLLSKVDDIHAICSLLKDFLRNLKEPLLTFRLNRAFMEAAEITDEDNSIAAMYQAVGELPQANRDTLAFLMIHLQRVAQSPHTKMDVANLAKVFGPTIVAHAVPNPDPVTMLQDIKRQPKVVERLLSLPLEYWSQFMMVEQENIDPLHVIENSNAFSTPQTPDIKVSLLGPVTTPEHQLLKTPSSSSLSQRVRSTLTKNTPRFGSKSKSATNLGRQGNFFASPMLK
Test: blockers of MgcRacGAP-driven Rac1 GTP hydrolysis – biochemical, ADP Hunter fluorescence, primary and confirmatory, confirmation (AID 624330)
Assay type: functional
Calls of active or inactive are those of the source.
Reported IC50 is given for each of the following compounds.

For orientation, consider the following solved cases.
>>> recorded_measurement("Cc1sc2ncnc(Nc3ccc(O)cc3)c2c1C")
"39.4 µM (active)"
>>> recorded_measurement("COc1cc(/C=N/NS(=O)(=O)c2ccc(C)c([N+](=O)[O-])c2)ccc1O")
"40.9 µM (active)"
>>> recorded_measurement("Cc1cc(=O)oc2c(O)c(O)ccc12")
"25.9 µM (active)"
>>> recorded_measurement("O=C(c1cccc(Cl)c1)N1CCN(C2CCCCC2)CC1")
"300 µM (active)"
>>> recorded_measurement("Oc1ccc(/N=C/c2cc(Br)c(N3CCOCC3)o2)cc1")
"42 µM (active)"

Given Cc1c(N=C2C=C(Br)C(=O)C(Br)=C2)c(=O)n(-c2ccccc2)n1C , state its recorded IC50.
52.2 µM (active)

###

Assay: Luminescence Cell-Based Dose Response HTS to Identify Activators of Luciferase Translation or Activity in H4 […] Cells. [Related pubchem assays: 1829 (Project Summary), 1814 (Primary HTS)]
Type: functional
Activity calls are given as the source filed them.
Reported EC50 is given for each of the following compounds.

For orientation, consider the following solved cases.
>>> recorded_measurement("CC(C)c1ccc(CNc2ccc3c(c2)ncn3C)cc1")
"0.228 µM (inconclusive)"
>>> recorded_measurement("Nc1cc(-c2ccc(Br)cc2)nn1Cc1ccccc1")
"18 µM (active)"
>>> recorded_measurement("COc1ccc(C(=O)/C=C/c2cccs2)c(OC(=O)c2cccc([N+](=O)[O-])c2)c1")
"4.7 µM (active)"
>>> recorded_measurement("NC(=O)c1ccccc1Nc1nc2nc3ccccc3c(=O)n2cc1Br")
"8.23 µM (active)"

Given COc1cccc(Nc2nnc(SCc3nc4ccccc4s3)s2)c1 , state its recorded EC50.
46.8 µM (active)

Subsequent entry: Cc1ccc(-c2nc3ccccc3n3nnnc23)cc1
10.1 µM (active)

Subsequent entry: CN(C(=O)c1cccc(N2C(=O)C3C4C=CC(C4)C3C2=O)c1)C1CCCCC1 (configuration not stated)
> 120 µM (not active)

Subsequent entry: O=C(N/N=C/c1c[nH]c2ccccc12)c1cc(-c2ccc(-c3ccccc3)cc2)[nH]n1
0.166 µM (active)

Subsequent entry: Cc1cccc(C(=N)NOC(=O)N2c3ccccc3Sc3ccccc32)c1
> 120 µM (not active)

Subsequent entry: Cc1ccc(-c2nn(-c3ccccc3)cc2C(=O)Nc2ccc(C)c(S(=O)(=O)N3CCOCC3)c2)cc1
> 120 µM (not active)

Subsequent entry: Nc1ccc(Oc2cc(N)cc(Oc3ccccc3)c2)cc1
< 0.1 µM (active)

Subsequent entry: NC(=S)N/N=C/c1ccc(C23CC4CC(CC(C4)C2)C3)cc1
< 0.1 µM (active)

###

Reported EC50 is given for each of the following compounds.
Test system: H4
Assay: Luminescence Cell-Based Dose Response HTS to Identify Activators of 5'UTR Stem-Loop Driven Prion Protein mRNA Translation in H4 Neuroglioblastoma Cells. [Related pubchem assays: 1829 (Project Summary), 1814 (Primary HTS)]
Format: functional
Details: Homo sapiens
Calls of active or inactive are those of the source.

For orientation, consider the following solved cases.
>>> recorded_measurement("Cc1ccc(C2NC(=O)c3c(sc(C)c3C)N2)c(O)c1 (stereo not drawn)")
"21.7 µM (active)"
>>> recorded_measurement("O=C(N/N=C/c1c[nH]c2ccccc12)c1cc(-c2ccc(-c3ccccc3)cc2)[nH]n1")
"> 120 µM (not active)"
>>> recorded_measurement("NC(=O)c1ccccc1Nc1nc2nc3ccccc3c(=O)n2cc1Br")
"> 120 µM (not active)"

Given Cc1ccc(-c2nn(-c3ccccc3)cc2C(=O)Nc2ccc(C)c(S(=O)(=O)N3CCOCC3)c2)cc1 , state its recorded EC50.
> 120 µM (not active)

Subsequent entry: COc1ccc(C(=O)/C=C/c2cccs2)c(OC(=O)c2cccc([N+](=O)[O-])c2)c1
10.6 µM (active)

Subsequent entry: O=[N+]([O-])c1cccc(-c2nnn(C34CC5CC(CC(C5)C3)C4)n2)c1
15 µM (active)

Subsequent entry: C/C(=N\OC(=O)c1ccc(F)cc1)c1sc(-c2ccc(Cl)cc2)nc1C
< 0.1 µM (active)

Subsequent entry: NC(=S)N/N=C/c1ccc(C23CC4CC(CC(C4)C2)C3)cc1
96.8 µM (active)

###

Reported AC50 is given for each of the following compounds.
Biological target: Microphthalmia-associated transcription factor (Homo sapiens, UniProt O75030)
Sequence (O75030 whole entry): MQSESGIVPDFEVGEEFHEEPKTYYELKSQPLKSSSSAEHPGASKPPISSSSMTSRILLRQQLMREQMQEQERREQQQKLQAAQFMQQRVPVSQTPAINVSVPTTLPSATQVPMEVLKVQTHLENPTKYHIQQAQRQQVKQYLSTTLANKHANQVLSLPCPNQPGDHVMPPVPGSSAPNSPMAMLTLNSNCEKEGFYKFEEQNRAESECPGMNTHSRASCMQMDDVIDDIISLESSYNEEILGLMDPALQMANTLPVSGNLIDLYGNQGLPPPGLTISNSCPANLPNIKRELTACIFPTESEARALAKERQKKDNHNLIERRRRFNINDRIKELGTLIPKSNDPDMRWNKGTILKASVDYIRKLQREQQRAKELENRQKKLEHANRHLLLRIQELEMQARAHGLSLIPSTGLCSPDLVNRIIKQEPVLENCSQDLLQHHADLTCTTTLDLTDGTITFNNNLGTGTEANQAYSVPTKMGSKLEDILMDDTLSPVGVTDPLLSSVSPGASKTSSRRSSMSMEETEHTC
Assay: reducers of TRPM1 reporter luminescence, concentration series – cell-based, SK-MEL-5, cherry-picked, set 3, MITF inhibitor project, dose response (AID 493073);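 also: SK-MEL-5 melanoma cells with luciferase driven by the MITF target TRPM1 promoter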
Format: functional
The source made the active and inactive calls.

For orientation, consider the following solved cases.
>>> recorded_measurement("COc1cccc(C(=O)Nc2ccc3c(cc2=O)[C@@H](NC(C)=O)CCc2cc(OC)c(OC)c(OC)c2-3)c1")
"8.43 µM (active)"
>>> recorded_measurement("C#CC(=O)N(c1ccc(OC)c(OC)c1)C(C(=O)NC1CCCC1)c1cccs1 (centres undefined)")
"3.31 µM (active)"
>>> recorded_measurement("Cc1ccc(S(=O)(=O)N2CCCCC2)cc1NC(=O)Cn1ncc(Cl)c(Cl)c1=O")
"6.21 µM (active)"

Okay, next one:
Item O=C(Cc1ccccc1)NCC(=O)N/N=C/c1ccc([N+](=O)[O-])s1 with Microphthalmia-associated transcription factor (Homo sapiens, UniProt O75030) - AC50?
16.1 µM (active)
